# credit: PubChem BioAssay AID2796

Molecular target: Aryl hydrocarbon receptor (Homo sapiens) (UniProt P35869)
Sequence (P35869 whole entry, looked up): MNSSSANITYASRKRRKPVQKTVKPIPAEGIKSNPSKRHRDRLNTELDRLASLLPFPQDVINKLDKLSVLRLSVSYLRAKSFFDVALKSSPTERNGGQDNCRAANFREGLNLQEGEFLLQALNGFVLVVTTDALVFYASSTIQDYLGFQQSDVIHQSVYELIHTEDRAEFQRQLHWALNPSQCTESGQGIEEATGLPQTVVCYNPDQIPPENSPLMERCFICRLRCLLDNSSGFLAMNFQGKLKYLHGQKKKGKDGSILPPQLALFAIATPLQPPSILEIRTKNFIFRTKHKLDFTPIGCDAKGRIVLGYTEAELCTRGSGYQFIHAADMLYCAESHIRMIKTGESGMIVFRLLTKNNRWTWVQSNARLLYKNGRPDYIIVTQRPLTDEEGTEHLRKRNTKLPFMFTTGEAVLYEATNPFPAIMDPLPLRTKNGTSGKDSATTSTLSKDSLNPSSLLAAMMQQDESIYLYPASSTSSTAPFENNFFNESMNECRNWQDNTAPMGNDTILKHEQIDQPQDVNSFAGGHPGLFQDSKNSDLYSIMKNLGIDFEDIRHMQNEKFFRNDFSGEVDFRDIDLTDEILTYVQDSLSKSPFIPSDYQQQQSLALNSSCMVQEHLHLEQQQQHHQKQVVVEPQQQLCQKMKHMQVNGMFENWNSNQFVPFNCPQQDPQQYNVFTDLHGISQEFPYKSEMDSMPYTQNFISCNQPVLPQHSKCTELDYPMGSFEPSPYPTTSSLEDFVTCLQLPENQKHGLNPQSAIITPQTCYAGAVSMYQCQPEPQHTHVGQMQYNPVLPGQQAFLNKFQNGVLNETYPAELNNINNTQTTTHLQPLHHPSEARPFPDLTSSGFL
Test: AHR activators, primary screen, cell-based, luminescence, luciferase reporter, human (AID 2796);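 also: 0% = vehicle wells and 100% = reference agonist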
Details: AHR-responsive luciferase reporter cells, at 5 µM, hits give high values
Among all 320,000 compounds or so, about 8,000 (2.5%) were called active. This excerpt belongs to a sample that is enriched for actives.
activation values, listed per item
Write down the numeric answer in % and omit the unit.

Here are 3 molecules together with their reported answers.
• O=C(Nc1nnc(-c2ccccc2)o1)c1cc(-c2cccs2)nc2ccccc12 = 5.25
• COc1ccc(NCCc2ccccn2)cc1 = 4.86
• CCn1c(=N)n(CC(=O)c2cccc(OC)c2)c2ccccc21 = 50.3

Aryl hydrocarbon receptor (Homo sapiens) (UniProt P35869) activation of "COc1ccc(Nc2cc(Sc3ccc(OC)cc3)ncn2)cc1" is 54

Aryl hydrocarbon receptor (Homo sapiens) (UniProt P35869) activation of "CCCn1c(=N)n(CC(=O)c2ccc(Cl)c(Cl)c2)c2ccccc21" is 66.2

Aryl hydrocarbon receptor (Homo sapiens) (UniProt P35869) activation of "COc1ccccc1C(=O)Nn1c(-c2cccs2)nc2ccccc2c1=O" is 13.9
